Values compiled from patent US20030068675.

Biological target: T1, ZFP SBS#617 (synthetic)
T1 chain: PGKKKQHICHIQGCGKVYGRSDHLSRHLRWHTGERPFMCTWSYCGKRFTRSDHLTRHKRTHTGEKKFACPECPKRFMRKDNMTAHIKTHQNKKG
Test: EMSA
Details: tags: MBP fusion
property name: Kd (nM)
The reply should be a number in nM, with the unit left off.

Problem: Supply measured Kd of AAGGGGGGG (dsDNA) DNA 1: AAGGGGGGG DNA 2: CCCCCCCTT in your reply.
Result: 1
